From: patent US7754759B2

Where a name gives a salt, the structure may show the parent alone.
// reported melting point per item

The examples below pair each entry with its known result.
| molecule | melting point |
| --- | --- |
| CNCC1CCc2ccc(S(=O)(=O)c3ccccc3)cc2O1 (stereo not drawn) (as salt: TFA) [Compound 3] | 196.2 to 198.2 °C |
| C[C@H](O)C(=O)NC[C@H]1CCc2ccc(S(=O)(=O)c3ccccc3)cc2O1 (stereo in doubt) [Compound 30] | 129.5 to 131.5 °C |
| CNC[C@H]1CCc2ccc(S(=O)(=O)c3cccc(F)c3)cc2O1 [Compound 35] | 259 to 261 °C |
| CNCC1CC(=O)c2ccc(S(=O)(=O)c3ccccc3)cc2O1 (stereo not drawn) (as salt: TFA) [Compound 1] | 157.8 to 189.6 °C |
| CNCC1CC(C)(O)c2ccc(S(=O)(=O)c3ccccc3)cc2O1 (stereo not drawn) (as salt: trifluoroacetate) [Compound 4] | 163.9 to 165.3 °C |

Next molecule, melting point to be filled in.
Tell me the measured melting point of NC[C@H]1CCc2ccc(S(=O)(=O)c3cccc(F)c3)cc2O1 [Compound 46] , please.
257.1 to 258.9 °C
